Molecular target: T1, human full-length Notch3 with C-terminal FLAG tag, stably expressed on 293 FlpIn (TREx) cells (human, UniProt Q9UM47 40-2321)
T1 construct: whole, on cells; made by the same strategy as the Notch1 line; also called 293-N3; hN3
Assay: FACS, phage scFv
measurement-label: binding result

hN1S3-135 (scFv, V domains shown, phage scFv) VH: EVQLVQSGAEVKKPGASVKVSCKASGYNFTGYYMHWVRQAPGQGLEWMGWINPNSGGTNYAQKFQGRVTMTRDTSISTAYMELSRLRSDDTAVYYCATDSFDYWGKGTLVTVSS VL: LPVLTQPPSVSEAPRQRVTISCSGSSFNIGNNAVNWYQQLPGKAPKLLIYYDDLLPSGVSDRFSGSKSGTSASLAISGLQSEDEADYYCAAWDDSLNAVVFGGGTKVTVL; binds
N1wc281 (scFv, V domains shown, phage scFv) VH: QVQLQESGAEVKKPGASVKVSCRASGYTFTTNSLHWVRQAPGQGLDWMGVINPRDGSATVAQKFQGRITMTSDTSTSTVFLALSSLTSDDTGVYFCARDGLDYRDTSRILAPTDVWGRGTLVTVSS VL: QSVLTQPPSVSVSPGQTASITCSGDKLGDKYTFWYQQKPGQSPVLIIYQDTKRPSGIPERFSGSNSGNTATLTISGTQAMDEADYYCQAWDSNTDHVIFGGGTKLTVL; binds
hN1S3-130 (scFv, V domains shown, phage scFv) VH: KVQLVQSGAEVKKPGASVKVSCKASGYTFTDFYIHWVRQAPGQGLEWMGWINSKSGDTHYAQKFQGRVTLTRDTSTDTAYMELSRLTSDDTAVYYCARGAYDYVWGSSRYVADAFDIWGRGTMVTVSS VL: DIVMTQSPSTLSASVGDRVTITCRASQGISSWLAWYQQKPGRAPKVLIYKASTLESGVPSRFSGSGSGTDFTLTISSLQPEDFATYYCQQSYSTPWTFGQGTKLEIK; binds
